target: Apoptosis regulator Bcl-2 (Homo sapiens); test: Inhibition of GST fused Bcl-2 binding to biotinylated 16 mer Bak-BH3 peptide by HTRF-LANCE assay
Property Label: IC50 (nM)

Sample records with IC50:
Query Smiles	Experimental Result
Cc1c(Cl)c(C(=O)N(c2ccccc2)c2ccccc2)nn1-c1ccccc1C(=O)N1Cc2ccccc2C[C@H]1CO	50
CCCCN(CCCC)C(=O)c1nn(-c2ccc(NC(=O)COc3ccccc3)cc2C(=O)N2CCc3ccccc3C2)c(C)c1Cl	40
Cc1c(Cl)c(C(=O)N(c2ccccc2)c2ccccc2)nn1-c1ccccc1C(=O)N1Cc2ccccc2C[C@H]1CN	30

P. Cc1cc(C(=O)N(c2ccccc2)c2ccccc2)nn1-c1ccccc1C(=O)N1Cc2ccccc2C[C@H]1CO
Q. CCCCN(CCCC)C(=O)c1cc(C)n(-c2ccc(OCC(=O)O)cc2C(=O)N2CCc3ccccc3C2)n1
R. CCCCN(CCCC)C(=O)c1nn(-c2ccccc2C(=O)N2Cc3ccccc3C[C@H]2CN)c(C)c1Cl
S. CCCCN(CCCC)C(=O)c1nn(-c2ccccc2C(=O)N2Cc3ccccc3C[C@H]2CO)c(C)c1Cl
input: Please list the entries, largest IC50 first. // format: requested-order list of labels
output: P, S, R, Q

* * *

target: Apoptosis regulator Bcl-2 (Homo sapiens); assay: Inhibition of GST fused Bcl-2 binding to biotinylated 26 mer Bak-BH3 peptide by HTRF-LANCE assay
pIC50: −log10 of the molar value.
Property Label: pIC50

Sample records with pIC50:
Query Smiles	Property Label	Experimental Result
Cc1c(Br)c(C(=O)N(c2ccccc2)c2ccccc2)nn1-c1ccccc1C(=O)N1Cc2ccccc2C[C@H]1CO	pIC50	6.68
Cc1c(Cl)c(C(=O)N(c2ccccc2)c2ccccc2)nn1-c1ccccc1C(=O)N1Cc2ccccc2C[C@H]1CN	pIC50	7.00
CCCCN(CCCC)C(=O)c1cc(C)n(-c2ccc(OCC(=O)O)cc2C(=O)N2CCc3ccccc3C2)n1	pIC50	6.89
CCCCN(CCCC)C(=O)c1nn(-c2ccccc2C(=O)N2Cc3ccccc3C[C@H]2CN)c(C)c1Cl	pIC50	6.80
CCCCN(CCCC)C(=O)c1cc(C)n(-c2ccc(NC(=O)CSc3ccccc3)cc2C(=O)N2CCc3ccccc3C2)n1	pIC50	6.22

P. CCCCN(CCCC)C(=O)c1nn(-c2ccc(NC(=O)COc3ccccc3)cc2C(=O)N2CCc3ccccc3C2)c(C)c1Cl
Q. Cc1c(Cl)c(C(=O)N(c2ccccc2)c2ccccc2)nn1-c1ccccc1C(=O)N1Cc2ccccc2C[C@H]1CO
R. CCCCN(CCCC)C(=O)c1nn(-c2ccccc2C(=O)N2Cc3ccccc3C[C@H]2CO)c(C)c1Cl
input: Please list the entries, largest pIC50 first. // format: requested-order list of labels
output: P, Q, R

* * *

molecular target: Apoptosis regulator Bcl-2 (Homo sapiens, UniProt P10415); experiment: Inhibition of GST fused Bcl-2 binding to biotinylated 26 mer Bak-BH3 peptide by HTRF-LANCE assay
Sequence (P10415 whole entry, the tested form may be a part): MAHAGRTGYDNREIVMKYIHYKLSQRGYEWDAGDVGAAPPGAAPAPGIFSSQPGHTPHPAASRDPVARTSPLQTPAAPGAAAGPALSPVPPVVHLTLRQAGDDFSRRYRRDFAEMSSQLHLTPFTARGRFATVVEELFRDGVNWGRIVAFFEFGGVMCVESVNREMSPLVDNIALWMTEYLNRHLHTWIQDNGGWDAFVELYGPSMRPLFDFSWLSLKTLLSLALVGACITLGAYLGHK
pIC50: −log10 of the molar value.
Property Label: pIC50

Sample records with pIC50:
Query Smiles	Experimental Result
CCCCN(CCCC)C(=O)c1nn(-c2ccc(N)cc2C(=O)N2Cc3ccccc3C[C@H]2CN)c(C)c1Cl	6.42
CCCCN(CCCC)C(=O)c1nn(-c2ccc(NC(=O)Cc3ccccc3)cc2C(=O)N2CCc3ccccc3C2)c(C)c1Cl	6.57

I. CCN(CC)C(=O)c1nn(-c2ccccc2C(=O)N2Cc3ccccc3C[C@H]2CO)c(C)c1Br
II. CCCCN(CCCC)C(=O)c1cc(C)n(-c2ccc(NC(=O)COc3ccccc3)cc2C(=O)N2CCc3ccccc3C2)n1
input: Field: lower recorded pIC50 (choose I or II ) Refer to your chosen item by its label in the answer.
output: I
(I: 4.76, II: 6.29)

* * *

target: Bcl-2-like protein 1 (Bcl-xL) (Homo sapiens) (UniProt Q07817); experiment: Inhibition of GST fused Bcl-xL binding to biotinylated 26 mer Bak-BH3 peptide at 30 uM by HTRF-LANCE assay
Sequence (Q07817 whole entry, looked up, the tested form may be a part): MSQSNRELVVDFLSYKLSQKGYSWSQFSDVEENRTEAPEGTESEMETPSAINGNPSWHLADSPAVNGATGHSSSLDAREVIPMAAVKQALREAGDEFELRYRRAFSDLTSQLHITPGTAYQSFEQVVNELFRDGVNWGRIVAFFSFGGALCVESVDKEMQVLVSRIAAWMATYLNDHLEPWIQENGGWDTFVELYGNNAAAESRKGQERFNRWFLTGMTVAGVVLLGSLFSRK
Property Label: inhibition (%)

Query Smiles	inhibition / %
Cc1c(Cl)c(C(=O)N(c2ccccc2)c2ccccc2)nn1-c1ccccc1C(=O)N1Cc2ccccc2C[C@H]1CO	29

I. Cc1c(Cl)c(C(=O)N(CC(F)(F)F)CC(F)(F)F)nn1-c1ccccc1C(=O)N1Cc2ccccc2C[C@H]1CO
II. Cc1c(Br)c(C(=O)N(c2ccccc2)c2ccccc2)nn1-c1ccccc1C(=O)N1Cc2ccccc2C[C@H]1CO
III. Cc1c(Cl)c(C(=O)N(c2ccccc2)c2ccccc2)nn1-c1ccccc1C(=O)N1Cc2ccccc2C[C@H]1CN
input: Please list the entries, largest inhibition first. // format: requested-order list of labels
output: III, II, I
(III: 28%, II: 9%, I: 4%)

* * *

molecular target: Apoptosis regulator Bcl-2 (Homo sapiens, UniProt P10415); assay: Inhibition of GST fused Bcl-2 binding to biotinylated 16 mer Bak-BH3 peptide by HTRF-LANCE assay
pIC50: −log10 of the molar value.
Property Label: pIC50

Query Smiles	pIC50
Cc1cc(C(=O)Nc2ccccc2)nn1-c1ccccc1C(=O)N1CCc2ccccc2C1	4.30
CCCCN(CCCC)C(=O)c1cc(C)n(-c2ccc(OCC(=O)c3ccccc3)cc2C(=O)N2CCc3ccccc3C2)n1	7.70
CCCCN(CCCC)C(=O)c1nn(-c2ccc(NC(=O)Cc3ccccc3)cc2C(=O)N2CCc3ccccc3C2)c(C)c1Cl	7.40
Cc1cc(C(=O)N(c2ccccc2)C2CCCCC2)nn1-c1ccccc1C(=O)N1CCc2ccccc2C1	5.85
Cc1cc(C(=O)N(c2ccccc2)c2ccccc2)nn1-c1ccccc1C(=O)N1Cc2ccccc2C[C@H]1CN	6.96

A. COC[C@@H]1Cc2ccccc2CN1C(=O)c1ccccc1-n1nc(C(=O)N(c2ccccc2)c2ccccc2)cc1C
B. COC(=O)C[C@@H]1Cc2ccccc2CN1C(=O)c1ccccc1-n1nc(C(=O)N(c2ccccc2)c2ccccc2)cc1C
C. Cc1cc(C(=O)N(c2ccccc2)c2ccccc2)nn1-c1ccccc1C(=O)N1Cc2ccccc2C[C@H]1CNS(C)(=O)=O
D. CCOC(=O)[C@@H]1Cc2ccccc2CN1C(=O)c1ccccc1-n1nc(C(=O)N(c2ccccc2)c2ccccc2)cc1C
input: Give the ascending ranking of the items by reported pIC50. // format: requested-order list of labels
output: D, C, B, A
(D: 5.25, C: 5.98, B: 6.55, A: 6.80)

* * *

target: Apoptosis regulator Bcl-2 (Homo sapiens); test: Inhibition of GST fused Bcl-2 binding to biotinylated 16 mer Bak-BH3 peptide by HTRF-LANCE assay
pIC50: −log10 of the molar value.
Property Label: pIC50

Query Smiles	Experimental Result
Cc1cc(C(=O)N(c2ccccc2)c2ccccc2)nn1-c1ccccc1C(=O)N1Cc2ccccc2C[C@H]1C	6.96
CNC[C@@H]1Cc2ccccc2CN1C(=O)c1ccccc1-n1nc(C(=O)N(c2ccccc2)c2ccccc2)cc1C	6.85

a. Cc1cc(C(=O)N(c2ccccc2)c2ccccc2)nn1-c1ccccc1C(=O)N1Cc2ccccc2C[C@H]1CN(C)C
b. CC(=O)NC[C@@H]1Cc2ccccc2CN1C(=O)c1ccccc1-n1nc(C(=O)N(c2ccccc2)c2ccccc2)cc1C
c. CCN(CC)C(=O)c1nn(-c2ccccc2C(=O)N2Cc3ccccc3C[C@H]2CO)c(C)c1Br
d. Cc1c(Br)c(C(=O)N(c2ccccc2)c2ccccc2)nn1-c1ccccc1C(=O)N1Cc2ccccc2C[C@H]1CO
e. Cc1cc(C(=O)N2CCc3ccccc3C2)nn1-c1ccccc1C(=O)N1CCc2ccccc2C1
input: Please list the entries, largest pIC50 first. // format: requested-order list of labels
output: d, a, b, e, c
(d: 7.40, a: 6.82, b: 6.14, e: 5.82, c: 5.44)
